- test_description: qHTS for Inhibitors of human tyrosyl-DNA phosphodiesterase 1 (TDP1): qHTS in cells in absence of CPT; also: nearly all actives have a fitted effect of over 55% in size
- protocol_conditions: DT40 Tdp1-/- hTDP1 cells, no CPT, ATP luminescence, 48 h
Among all 420,000 compounds or so, about 64,000 (15%) were called active. Another 27% or so got no clear call; they are omitted. Calls follow the shape of the dose curve; as a rule, active = well fitted inhibition curve with a large enough effect; inconclusive = small, poorly fitted or top-dose-only effect; inactive = flat fitted curve, though single readings scatter. Not all results are given here.
Return exactly one item of TRUE = active, FALSE = inactive

Enquiry: Identify the outcome logged in this assay for the molecule shown: "O=C(NCc1ccccc1Cl)NC(=O)c1csc([N+](=O)[O-])c1"
Return: FALSE

Enquiry: Identify the outcome logged in this assay for the molecule shown: "CC/C(O)=C1\C(=O)CC(C)(C)CC1=NCCc1nc2ccccc2[nH]1"
Return: TRUE

Enquiry: Identify the outcome logged in this assay for the molecule shown: "CSc1ccc(CCNC(=O)c2cnn(-c3ccccc3)c2-n2cccc2)cc1"
Return: TRUE

Enquiry: Identify the outcome logged in this assay for the molecule shown: "CCCN1CCN(CCCNC(=O)c2cnn(-c3ccc(C)cc3)c2-n2cccc2)CC1"
Return: FALSE

Enquiry: Identify the outcome logged in this assay for the molecule shown: "COC(C[C@@H](O)[C@H](C)[C@H](O)COCc1ccccc1)OC"
Return: FALSE

Enquiry: Identify the outcome logged in this assay for the molecule shown: "Cc1ccc(-c2noc(CSc3nnc(-c4ccncc4)n3-c3ccc(F)cc3)n2)cc1"
Return: TRUE

Enquiry: Identify the outcome logged in this assay for the molecule shown: Cc1ccc(NC(=O)C(C)OC(=O)Cc2c[nH]c3ccccc23)cc1S(=O)(=O)N1CCOCC1 (stereo unspecified)
Return: FALSE

Enquiry: Identify the outcome logged in this assay for the molecule shown: "CCOCCN(C=O)c1cccc(OC)c1"
Return: FALSE

Enquiry: Identify the outcome logged in this assay for the molecule shown: "Nc1cccc(CCc2nc3ccccc3[nH]2)c1"
Return: FALSE

Enquiry: Identify the outcome logged in this assay for the molecule shown: "Cc1ccc(-c2noc(CSc3nnnn3-c3ccccc3)n2)cc1"
Return: FALSE

Enquiry: Identify the outcome logged in this assay for the molecule shown: "O=C(Nc1ccccn1)C1CCN(S(=O)(=O)c2ccccc2)CC1"
Return: FALSE

---

- test_description: qHTS for Inhibitors of human tyrosyl-DNA phosphodiesterase 1 (TDP1): qHTS in cells in absence of CPT; also: nearly all actives have a fitted effect of over 55% in size
- protocol_conditions: DT40 Tdp1-/- hTDP1 cells, no CPT, ATP luminescence, 48 h
Among all 420,000 compounds or so, about 64,000 (15%) were called active. Roughly 27% stayed inconclusive and do not appear here. The call rests on the fitted dose curve; in most records, active means well fitted inhibition curve with a large enough effect; inconclusive means small, poorly fitted or top-dose-only effect; inactive means flat fitted curve, though single readings scatter. These entries were drawn from the full list.
Return exactly one item of yes (1) for active, no (0) for inactive

{"molecule": "C=CCOc1ccc(/C=C/C(=O)OCC(=O)NCC2CCCO2)cc1 (stereo unspecified)", "assigned_category": "no (0)"}
{"molecule": "Cc1ccccc1-n1nc(C)c2c1N=C1C(Cl)=CC(Cl)=CN1C2c1ccc(C(=O)O)cc1 (stereo unspecified)", "assigned_category": "no (0)"}
{"molecule": "CCOc1ccccc1NC(=O)CSc1ncc(S(=O)(=O)c2ccc(C(C)(C)C)cc2)c(=O)[nH]1", "assigned_category": "no (0)"}
{"molecule": "Cc1ccccc1Nc1nnc(SCC(=O)c2cc3ccccc3o2)s1", "assigned_category": "no (0)"}
{"molecule": "Cc1occc1-c1nnc(SCC(=O)NC2(C#N)CCCC2)n1C", "assigned_category": "no (0)"}

Enquiry: Identify the outcome logged in this assay for the molecule shown: "Cc1ccccc1C(=O)NNC(=O)CN1C(=O)c2ccccc2C1=O"
Return: no (0)

Enquiry: Identify the outcome logged in this assay for the molecule shown: "Cc1cccc(C)c1NC(=O)CNC(=O)c1ccc(N2CCOCC2)c([N+](=O)[O-])c1"
Return: no (0)

Enquiry: Identify the outcome logged in this assay for the molecule shown: "N#Cc1c(NC(=O)c2ccc(N3CCOCC3)c([N+](=O)[O-])c2)sc2c1CCCC2"
Return: yes (1)

Enquiry: Identify the outcome logged in this assay for the molecule shown: "Cc1cc(C)cc(-c2nnc(SCC(=O)NC3CC3)o2)c1"
Return: no (0)

Enquiry: Identify the outcome logged in this assay for the molecule shown: "CN(Cc1ccccc1)c1nc2c(c(=O)[nH]c(=O)n2C)n1CCSc1nc2ccccc2[nH]1"
Return: no (0)

Enquiry: Identify the outcome logged in this assay for the molecule shown: "Cc1cccc(Nc2nnc(SCC(=O)c3c(N)n(C4CC4)c(=O)[nH]c3=O)s2)c1C"
Return: yes (1)

Enquiry: Identify the outcome logged in this assay for the molecule shown: "CCOc1ccc(NS(=O)(=O)c2ccc(OCC(=O)NCCCOC)cc2)cc1"
Return: no (0)
